Value source: patent US10973925B2

# System: PSMA positive LNCaP cells
# condition.details: LNCaP cell viability
experimental.readout: pIC50
Keep in mind that pIC50 stands for -log10 of concentration in molar terms.

Fill in the blank: the reported pIC50 of C[C@]12CC[C@H](O)CC1=CC[C@@H]1[C@@H]2CC[C@]2(C)C(c3cccnc3)=CC[C@@H]12 is ____. 5.59
